For each entry below, report its -TΔS, event 1, two-site model value.
Target: T1, BS69CC-MYND (BS69 amino acid 480–602, CC-MYND domain) (Homo sapiens, UniProt Q15326)
T1 construct: The BS69 CC-MYND domain (amino acids 480–602) was amplified from pCI-BS69; GST (N, cleaved yes); 6xHis (N, cleaved yes); made in house; host or cells: E. coli Rosetta 2 (DE3) pLysS
T1 sequence (Q15326 480-602): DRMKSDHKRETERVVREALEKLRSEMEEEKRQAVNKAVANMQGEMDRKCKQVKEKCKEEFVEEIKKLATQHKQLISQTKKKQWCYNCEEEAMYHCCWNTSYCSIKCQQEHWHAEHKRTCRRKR
Test: Isothermal titration calorimetry (ITC) of EBNA2 peptides and polypeptides binding to BS69CC-MYND
Conditions: 29 injections, mean ± SD of 3 independent experiments

{"columns": ["MOLECULE", "RESULT"],
 "data": [
  ["EBNA2_348-422 SD + m3 mt: type 2 EBNA2 polypeptide 348–422 containing both the SD and motif 3 (ATAEA) mutations (protein, left off: His6, N-terminal, cleaved, type 2 EBNA2 polypeptide 348–422 containing both the SD and motif 3 (ATAEA) mutations) SMPQLSPVVSLHQGQGPENSPTPGPSTAGPVCRVTPSATPDISPIHEPESSDSEEPPFLFPDDWYPATAEAAELD", "20.4 ± 2.24 kcal/mol"],
  ["EBNA2_348-422 SD + m3 T1: type 2 EBNA2 polypeptide 348–422 containing both the SD and motif 3 (PSIDP) mutations (protein, left off: His6, N-terminal, cleaved, type 2 EBNA2 polypeptide 348–422 containing both the SD and motif 3 (PSIDP) mutations) SMPQLSPVVSLHQGQGPENSPTPGPSTAGPVCRVTPSATPDISPIHEPESSDSEEPPFLFPDDWYPPSIDPAELD", "21.0 ± 0.95 kcal/mol"],
  ["T2 EBNA2_348-422: type 2 EBNA2 polypeptide containing motif 1, 2 and 3, amino acids 348–422 (protein, left off: His6, N-terminal, cleaved) SMPQLSPVVSLHQGQGPENSPTPGPSTAGPVCRVTPSATPDISPIHEPESSDSEEPPFLFPSDWYPPTLEPAELD", "23.1 ± 0.14 kcal/mol"]
]}

Identify -TΔS, event 1, two-site model associated with the molecule T2 EBNA2_348-422 SD: type 2 EBNA2 polypeptide 348–422 with an S409D mutation (protein, left off: His6, N-terminal, cleaved, type 2 EBNA2 polypeptide 348–422 with an S409D mutation) SMPQLSPVVSLHQGQGPENSPTPGPSTAGPVCRVTPSATPDISPIHEPESSDSEEPPFLFPDDWYPPTLEPAELD
11.6 ± 0.31 kcal/mol
